# Run Description: Selectivity index, ratio of IC50 for mouse BALB/3T3 cells to IC50 for human LoVo/DX cells
# Assay type: functional
Measure Name: Ratio IC50
Respond numerically, and do not add a unit to the figure.

**Query** Form field: reported Ratio IC50 of COc1cccc2c1C(=O)c1c(O)c3c(c(O)c1C2=O)C[C@@](O)(C(=O)CO)C[C@@H]3O[C@H]1C[C@H](N)[C@H](O)[C@H](C)O1
**Result** 0.07

**Query** Form field: reported Ratio IC50 of CC[C@@H](C(=O)[C@@H](C)[C@@H](O)[C@H](C)[C@@H]1O[C@@H]([C@@H](CC)C(=O)NCCOCCO)CC[C@@H]1C)[C@H]1O[C@]2(C=C[C@@H](O)[C@]3(CC[C@@](C)([C@H]4CC[C@](O)(CC)[C@H](C)O4)O3)O2)[C@H](C)C[C@@H]1C
**Result** 2.76

**Query** Form field: reported Ratio IC50 of CC[C@@H](C(=O)[C@@H](C)[C@@H](O)[C@H](C)[C@@H]1O[C@@H]([C@@H](CC)C(=O)NCCCCN)CC[C@@H]1C)[C@H]1O[C@]2(C=C[C@@H](O)[C@]3(CC[C@@](C)([C@H]4CC[C@](O)(CC)[C@H](C)O4)O3)O2)[C@H](C)C[C@@H]1C
**Result** 2.78

**Query** Form field: reported Ratio IC50 of C#CCNC(=O)[C@H](CC)[C@H]1CC[C@H](C)[C@H]([C@@H](C)[C@H](O)[C@H](C)C(=O)[C@H](CC)[C@H]2O[C@]3(C=C[C@@H](O)[C@]4(CC[C@@](C)([C@H]5CC[C@](O)(CC)[C@H](C)O5)O4)O3)[C@H](C)C[C@@H]2C)O1
**Result** 9.6

**Query** Form field: reported Ratio IC50 of CC[C@@H](C(=O)[C@@H](C)[C@@H](O)[C@H](C)[C@@H]1O[C@@H]([C@@H](CC)C(=O)NCCc2c[nH]cn2)CC[C@@H]1C)[C@H]1O[C@]2(C=C[C@@H](O)[C@]3(CC[C@@](C)([C@H]4CC[C@](O)(CC)[C@H](C)O4)O3)O2)[C@H](C)C[C@@H]1C
**Result** 0.99

###

Give Ratio IC50 for every item shown.
# Run Description: Selectivity index, ratio of IC50 for mouse BALB/3T3 cells to IC50 for human LoVo/DX cells
# Format: functional
Respond numerically, and do not add a unit to the figure.

**Query** Form field: reported Ratio IC50 of CC[C@@H](C(=O)[C@@H](C)[C@@H](O)[C@H](C)[C@@H]1O[C@@H]([C@@H](CC)C(=O)NCCCCNC(=O)[C@H](CC)[C@H]2CC[C@H](C)[C@H]([C@@H](C)[C@H](O)[C@H](C)C(=O)[C@H](CC)[C@H]3O[C@]4(C=C[C@@H](O)[C@]5(CC[C@@](C)([C@H]6CC[C@](O)(CC)[C@H](C)O6)O5)O4)[C@H](C)C[C@@H]3C)O2)CC[C@@H]1C)[C@H]1O[C@]2(C=C[C@@H](O)[C@]3(CC[C@@](C)([C@H]4CC[C@](O)(CC)[C@H](C)O4)O3)O2)[C@H](C)C[C@@H]1C
**Result** 5.13

**Query** Form field: reported Ratio IC50 of CC[C@@H](C(=O)[C@@H](C)[C@@H](O)[C@H](C)[C@@H]1O[C@@H]([C@@H](CC)C(=O)NCCS)CC[C@@H]1C)[C@H]1O[C@]2(C=C[C@@H](O)[C@]3(CC[C@@](C)([C@H]4CC[C@](O)(CC)[C@H](C)O4)O3)O2)[C@H](C)C[C@@H]1C
**Result** 0.6

**Query** Form field: reported Ratio IC50 of CC[C@@H](C(=O)[C@@H](C)[C@@H](O)[C@H](C)[C@@H]1O[C@@H]([C@@H](CC)C(=O)O)CC[C@@H]1C)[C@H]1O[C@]2(C=C[C@@H](O)[C@]3(CC[C@@](C)([C@H]4CC[C@](O)(CC)[C@H](C)O4)O3)O2)[C@H](C)C[C@@H]1C
**Result** 26.08

###

Give MIC for every item shown.
# Test system: Staphylococcus epidermidis
# Run Description: Antibacterial activity against methicillin-resistant Staphylococcus epidermidis 459/11
# Format: functional
Write the answer as a number in µg/mL, unit excluded.

**Query** For Staphylococcus epidermidis, provide MIC of CC[C@@H](C(=O)[C@@H](C)[C@@H](O)[C@H](C)[C@@H]1O[C@@H]([C@@H](CC)C(=O)NCCS)CC[C@@H]1C)[C@H]1O[C@]2(C=C[C@@H](O)[C@]3(CC[C@@](C)([C@H]4CC[C@](O)(CC)[C@H](C)O4)O3)O2)[C@H](C)C[C@@H]1C please.
**Result** 32

**Query** For Staphylococcus epidermidis, provide MIC of CC[C@@H](C(=O)[C@@H](C)[C@@H](O)[C@H](C)[C@@H]1O[C@@H]([C@@H](CC)C(=O)O)CC[C@@H]1C)[C@H]1O[C@]2(C=C[C@@H](O)[C@]3(CC[C@@](C)([C@H]4CC[C@](O)(CC)[C@H](C)O4)O3)O2)[C@H](C)C[C@@H]1C [SALINOMYCIN] please.
**Result** 16

**Query** For Staphylococcus epidermidis, provide MIC of CC[C@@H](C(=O)[C@@H](C)[C@@H](O)[C@H](C)[C@@H]1O[C@@H]([C@@H](CC)C(=O)NCCOCCO)CC[C@@H]1C)[C@H]1O[C@]2(C=C[C@@H](O)[C@]3(CC[C@@](C)([C@H]4CC[C@](O)(CC)[C@H](C)O4)O3)O2)[C@H](C)C[C@@H]1C please.
**Result** 32

**Query** For Staphylococcus epidermidis, provide MIC of CC[C@@H](C(=O)[C@@H](C)[C@@H](O)[C@H](C)[C@@H]1O[C@@H]([C@@H](CC)C(=O)NCCCCN)CC[C@@H]1C)[C@H]1O[C@]2(C=C[C@@H](O)[C@]3(CC[C@@](C)([C@H]4CC[C@](O)(CC)[C@H](C)O4)O3)O2)[C@H](C)C[C@@H]1C please.
**Result** 32

**Query** For Staphylococcus epidermidis, provide MIC of O=C(O)c1cn(C2CC2)c2cc(N3CCNCC3)c(F)cc2c1=O [CIPROFLOXACIN] please.
**Result** 16

###

# Tested on: Staphylococcus epidermidis
# Run Description: Antibacterial activity against methicillin-resistant Staphylococcus epidermidis 469/11
# Format: functional
Measure Name: MIC

**Query** Form field: reported MIC of CC[C@@H](C(=O)[C@@H](C)[C@@H](O)[C@H](C)[C@@H]1O[C@@H]([C@@H](CC)C(=O)NCCCCN)CC[C@@H]1C)[C@H]1O[C@]2(C=C[C@@H](O)[C@]3(CC[C@@](C)([C@H]4CC[C@](O)(CC)[C@H](C)O4)O3)O2)[C@H](C)C[C@@H]1C
**Result** 64 µg/mL

###

Give Ratio IC50 for every item shown.
# Run Description: Selectivity index, ratio of IC50 for mouse BALB/3T3 cells to IC50 for human LoVo/DX cells
# Assay type: functional
Respond numerically, and do not add a unit to the figure.

**Query** Form field: reported Ratio IC50 of CC[C@@H](C(=O)[C@@H](C)[C@@H](O)[C@H](C)[C@@H]1O[C@@H]([C@@H](CC)C(=O)Nc2ccc(NC(=O)[C@H](CC)[C@H]3CC[C@H](C)[C@H]([C@@H](C)[C@H](O)[C@H](C)C(=O)[C@H](CC)[C@H]4O[C@]5(C=C[C@@H](O)[C@]6(CC[C@@](C)([C@H]7CC[C@](O)(CC)[C@H](C)O7)O6)O5)[C@H](C)C[C@@H]4C)O3)cc2)CC[C@@H]1C)[C@H]1O[C@]2(C=C[C@@H](O)[C@]3(CC[C@@](C)([C@H]4CC[C@](O)(CC)[C@H](C)O4)O3)O2)[C@H](C)C[C@@H]1C
**Result** 7.2

**Query** Form field: reported Ratio IC50 of CC[C@@H](C(=O)[C@@H](C)[C@@H](O)[C@H](C)[C@@H]1O[C@@H]([C@@H](CC)C(=O)NCCc2ccc(F)cc2)CC[C@@H]1C)[C@H]1O[C@]2(C=C[C@@H](O)[C@]3(CC[C@@](C)([C@H]4CC[C@](O)(CC)[C@H](C)O4)O3)O2)[C@H](C)C[C@@H]1C
**Result** 19.57

###

# System: Staphylococcus epidermidis
# Run Description: Antibacterial activity against methicillin-resistant Staphylococcus epidermidis 469/11
# Format: functional
Give MIC for every item shown.
Reply with a number, then the unit it belongs to.

**Query** Form field: reported MIC of CC[C@@H](C(=O)[C@@H](C)[C@@H](O)[C@H](C)[C@@H]1O[C@@H]([C@@H](CC)C(=O)O)CC[C@@H]1C)[C@H]1O[C@]2(C=C[C@@H](O)[C@]3(CC[C@@](C)([C@H]4CC[C@](O)(CC)[C@H](C)O4)O3)O2)[C@H](C)C[C@@H]1C
**Result** 16 µg/mL

**Query** Form field: reported MIC of CC[C@@H](C(=O)[C@@H](C)[C@@H](O)[C@H](C)[C@@H]1O[C@@H]([C@@H](CC)C(=O)NCCS)CC[C@@H]1C)[C@H]1O[C@]2(C=C[C@@H](O)[C@]3(CC[C@@](C)([C@H]4CC[C@](O)(CC)[C@H](C)O4)O3)O2)[C@H](C)C[C@@H]1C
**Result** 64 µg/mL

**Query** Form field: reported MIC of CC[C@@H](C(=O)[C@@H](C)[C@@H](O)[C@H](C)[C@@H]1O[C@@H]([C@@H](CC)C(=O)NCCOCCO)CC[C@@H]1C)[C@H]1O[C@]2(C=C[C@@H](O)[C@]3(CC[C@@](C)([C@H]4CC[C@](O)(CC)[C@H](C)O4)O3)O2)[C@H](C)C[C@@H]1C
**Result** 64 µg/mL

**Query** Form field: reported MIC of O=C(O)c1cn(C2CC2)c2cc(N3CCNCC3)c(F)cc2c1=O
**Result** 8 µg/mL
